# experimental target: T1, human TREM2 (human, UniProt Q9NZC2 19-174, limits assumed)
# T1 construct: also called triggering receptor expressed on myeloid cells 2
# T1 sequence: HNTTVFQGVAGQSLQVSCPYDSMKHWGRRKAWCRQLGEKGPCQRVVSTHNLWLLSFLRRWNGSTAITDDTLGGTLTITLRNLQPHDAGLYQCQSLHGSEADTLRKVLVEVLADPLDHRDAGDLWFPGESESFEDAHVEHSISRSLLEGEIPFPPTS
# measurement protocol: 2nd screen 2 nM
recorded endpoint: Binding Signal (fold over 6E7 Parental antibody) (fold)
API: value field is a number in fold; no unit string.

Solved cases below.
Summary for this binder, V88 (antibody, V domains shown) VH: EVQLVQSGAEVKKPGESLKISCKGSGYSFGSYWIAWVRQMPGKGLEWMGIIYPGDSDTRYSPSFQGQVTISADKSISTAYLQWSSLKASDTAMYFCARQRTFYYDSSDYFDYWGQGTLVTVSS VL: DIQMTQSPSSVSASVGDRVTITCRASQGISSWLAWYQQKPGKAPKLLIYAASRLQRGVPSRFSGSGSGTDFTLTISSLQPEDFATYFCQQADSSPRTFGQGTKLEIK : Binding Signal (fold over 6E7 Parental antibody) is 5.57

Summary for this binder, V38 (antibody, V domains shown) VH: EVQLVQSGAEVKKPGESLKISCKGSGYSFGSYWIAWVRQMPGKGLEWMGIIYPGDSDVRYSPSFQGQVTISADKSISTAYLQWSSLKASDTAMYFCARQRTFYYDSSDYFDYWGQGTLVTVSS VL: DIQMTQSPSSVSASVGDRVTITCRASQGISSWLAWYQQKPGKAPKLLIYAASSRQNGVPSRFSGSGSGTDFTLTISSLQPEDFATYFCQQADSHPRTFGQGTKLEIK : Binding Signal (fold over 6E7 Parental antibody) is 3.44

Summary for this binder, V72 (antibody, V domains shown) VH: EVQLVQSGAEVKKPGESLKISCKGSGYSFTSYWIGWVRQMPGKGLEWMGIIYPGDSDTRYSPSFQGQVTISADKSISTAYLQWSSLKASDTAMYFCARGRTFYYDSSDYFDYWGQGTLVTVSS VL: DIQMTQSPSSVSASVGDRVTITCRASQGISSWLAWYQQKPGKAPKLLIYAASSLVNGVPSRFSGSGSGTDFTLTISSLQPEDFATYFCQQADSYPRTFGQGTKLEIK : Binding Signal (fold over 6E7 Parental antibody) is 2.5

Summary for this binder, V63 (antibody, V domains shown) VH: EVQLVQSGAEVKKPGESLKISCKGSGYSFRSYWIAWVRQMPGKGLEWMGIIYPGDSDTRYSPSFQGQVTISADKSISTAYLQWSSLKASDTAMYFCARSRTFYYDSSDYFDYWGQGTLVTVSS VL: DIQMTQSPSSVSASVGDRVTITCRASQGISSWLAWYQQKPGKAPKLLIYAASSLQRGVPSRFSGSGSGTDFTLTISSLQPEDFATYFCQQADRFPRTFGQGTKLEIK : Binding Signal (fold over 6E7 Parental antibody) is 4.91

More entries:
Summary for this binder, V36 (antibody, V domains shown) VH: EVQLVQSGAEVKKPGESLKISCKGSGYSFTSYWLAWVRQMPGKGLEWMGIIYPGDSDTRYSPSFQGQVTISADKSISTAYLQWSSLKASDTAMYFCARSRTFYYDSSDYFDYWGQGTLVTVSS VL: DIQMTQSPSSVSASVGDRVTITCRASQGISSWLAWYQQKPGKAPKLLIYAASSRQNGVPSRFSGSGSGTDFTLTISSLQPEDFATYFCQQADSYPRTFGQGTKLEIK : Binding Signal (fold over 6E7 Parental antibody) is 4

Values from patent US20250282866A1
